Molecular target: Tyrosyl-DNA phosphodiesterase 2 (Homo sapiens)
Sequence (O95551 whole entry): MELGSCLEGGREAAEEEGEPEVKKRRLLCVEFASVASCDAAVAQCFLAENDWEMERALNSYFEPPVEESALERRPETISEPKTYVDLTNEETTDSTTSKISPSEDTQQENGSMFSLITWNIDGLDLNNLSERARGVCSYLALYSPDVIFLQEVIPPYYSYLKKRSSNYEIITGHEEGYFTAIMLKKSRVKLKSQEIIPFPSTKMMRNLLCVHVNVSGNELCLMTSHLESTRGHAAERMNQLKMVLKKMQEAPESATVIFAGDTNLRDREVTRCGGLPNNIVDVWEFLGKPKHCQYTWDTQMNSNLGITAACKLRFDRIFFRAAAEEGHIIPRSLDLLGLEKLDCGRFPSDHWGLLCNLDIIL
Assay: human TDP2 enzyme inhibitors, dose response, biochemical, epi absorbance, IC50 (AID 743297)
The source made the active and inactive calls. Cut-off read from the data, not from the text of the source: active = IC50 of 10 µM or less and inactive = more.
Outcomes: true (1) = active, false (0) = inactive

                                   molecule                               measured_on  label_class
0  CCCCn1c(NC(=O)c2ccccc2Cl)c(C#N)c2nc3ccccc3nc21  Tyrosyl-DNA phosphodiesterase 2 (Homo sapiens)     true (1)
1  CC(=O)c1cccc(-c2ccc3c(=O)[nH]c(Nc4ccccc4)cc3c2)c1  Tyrosyl-DNA phosphodiesterase 2 (Homo sapiens)    false (0)
2            Oc1nc(Nc2ccccc2)cc2cc(Br)ccc12  Tyrosyl-DNA phosphodiesterase 2 (Homo sapiens)    false (0)
3               O=C1C(=O)c2ccccc2-c2ccccc21  Tyrosyl-DNA phosphodiesterase 2 (Homo sapiens)     true (1)
4  CC(N=C1C=C(O)c2cccnc2C1=O)C(O)c1ccccc1 (stereo not given)  Tyrosyl-DNA phosphodiesterase 2 (Homo sapiens)     true (1)
